# system: Stb5 (UniProt P38699)
# Sequence: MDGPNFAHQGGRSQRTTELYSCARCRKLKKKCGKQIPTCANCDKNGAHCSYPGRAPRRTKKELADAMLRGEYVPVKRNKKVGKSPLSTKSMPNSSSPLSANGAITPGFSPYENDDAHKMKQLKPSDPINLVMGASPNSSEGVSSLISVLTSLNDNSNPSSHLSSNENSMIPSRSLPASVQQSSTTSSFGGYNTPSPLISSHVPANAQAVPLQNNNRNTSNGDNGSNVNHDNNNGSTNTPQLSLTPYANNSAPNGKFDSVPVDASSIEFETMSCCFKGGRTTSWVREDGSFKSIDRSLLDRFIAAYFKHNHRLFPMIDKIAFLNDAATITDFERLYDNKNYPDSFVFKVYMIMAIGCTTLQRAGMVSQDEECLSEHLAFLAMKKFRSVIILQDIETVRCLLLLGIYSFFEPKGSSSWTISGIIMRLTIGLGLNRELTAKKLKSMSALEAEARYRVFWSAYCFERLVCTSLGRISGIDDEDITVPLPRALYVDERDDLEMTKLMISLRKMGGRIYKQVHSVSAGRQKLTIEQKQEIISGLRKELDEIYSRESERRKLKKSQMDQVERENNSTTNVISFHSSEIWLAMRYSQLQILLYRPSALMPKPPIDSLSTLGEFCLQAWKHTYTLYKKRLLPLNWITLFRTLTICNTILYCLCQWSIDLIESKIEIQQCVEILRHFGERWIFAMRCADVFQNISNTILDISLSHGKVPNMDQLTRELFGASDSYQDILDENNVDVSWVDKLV
# test-name: PBM E-score (8-mer binding enrichment) (E-score (-0.5 to 0.5)); higher = stronger / more preferred TF binding
# cond: protein concentration: 200 nM; construct: GST-full length
Over roughly 33,000 sequences, “E-score (-0.5 to 0.5)” has its median near -0.054; the highest 2% begin near 0.35. For the sample, the highest values were picked, then their nearest neighbours and some sequences at random.
reported-endpoint: PBM E-score

What value of PBM E-score has been recorded for this entry: GAACCGCC
0.187

Which PBM E-score value belongs to AATCTGTG ?
-0.207

Entry TGTGATAA has what PBM E-score?
-0.171

Which PBM E-score reading was recorded for the sequence ACTCCGGG ?
0.327

What does the data say about its PBM E-score? Entry: AACGGACG
0.224

For ACACCGCC , what is its reported PBM E-score?
0.459

PBM E-score for ACCGCGGG ?
0.317

Requested field: PBM E-score. Item: GGCCACGA
0.111

What value of measured PBM E-score is listed for GCGGTGCA ?
0.259

Sample AATCCCGT — what was its PBM E-score?
0.419

Which value of PBM E-score has been reported for ATAAGGGC in the records?
0.0814

Query: PBM E-score; subject: AACGGGGA
0.288

# query: PBM E-score of entry CCACCGCC
0.282

Can you share its PBM E-score? I mean this sequence: AACGGATC
0.16

Please look up its PBM E-score: ACCCCTGA
-0.108

Would you mind telling me what PBM E-score value was observed for AAAAAGCT ?
-0.205

Please look up its PBM E-score: TACCACGA
-0.267

// query PBM E-score value for entry AGCACCTA
-0.104

Find the recorded PBM E-score belonging to ACCGACCG and report it.
0.346

Could you share which PBM E-score value was measured for GTTACTTA ?
0.0421

Look up PBM E-score: AGGCTCCG
0.246

Name the recorded PBM E-score for AGCACCCG .
0.153

What value of PBM E-score has been recorded for this entry: CCCCCAAG
-0.233

Fill in the blank: the reported PBM E-score of AACGGACT is ____.
0.38

Record request: PBM E-score value, item ACGGTCAA
0.126

I'd like to know its PBM E-score. The sequence in question is GATCCCGC
0.232

Which PBM E-score value is on record for AACGGGGC ?
0.294

What does the record list as PBM E-score for CTGACCAA ?
-0.176

So what's the measured PBM E-score for this one? CGGCGTCC
0.277

Find the recorded PBM E-score belonging to TCGCGCAA and report it.
-0.136

Suppose we examine the sequence ACACCGCT ; what PBM E-score value has been reported?
0.419

Entry AAAGCTCG has what PBM E-score?
-0.16

Entry ACCGCGGC : reported PBM E-score = ?
0.412

// returns reported PBM E-score for input CCCGCGGG
0.361

Can you share its PBM E-score? I mean this sequence: AAACCGCC
0.302

Quick one: PBM E-score of CCCGCGGA ?
0.322

# lookup: PBM E-score of CGGGACTA
0.451

Can you share its PBM E-score? I mean this sequence: ATACCGTG
0.249

PBM E-score lookup needed for CACCGATC , thanks.
0.359

Fill in: PBM E-score of CGGGATTC is ___
0.219

Would you mind telling me what PBM E-score value was observed for AATCCCCT ?
-0.165

Recorded PBM E-score of GCTCCGGA , please.
0.368

Bench note: what PBM E-score did AGGGATTA show?
0.0519

// PBM E-score lookup, key: CATCCCGA
0.1

PBM E-score lookup needed for ACCGCGGT , thanks.
0.39

Quick check: PBM E-score of AGTCCCGA ?
0.342

Consider the sequence AACGGGTA and give its measured PBM E-score.
0.102

Form field: reported PBM E-score of CCCGCGCG
0.342

So what does the record say about PBM E-score for AATCCCGC ?
0.398

May I ask what PBM E-score has been recorded for CGCTGCCC ?
-0.0156

Quick one: PBM E-score of CGTCCCGC ?
0.2

Can you share its PBM E-score? I mean this sequence: CCCGACCC
0.247

Name the reported PBM E-score value associated with the sequence ATAGCCCA
-0.245

Returns the measured PBM E-score for the input sequence. Input: CGAAATTA
-0.0454

Given CGGGGACC , state its recorded PBM E-score.
0.051

Looking for the measured PBM E-score of CGAGGCTA , can you help?
-0.0771

What measured PBM E-score goes with AACGGGGG ?
0.296

Which PBM E-score value belongs to GCCGCGGA ?
0.299

What measured PBM E-score goes with TCCGCGGA ?
0.144

PBM E-score lookup needed for CCCGCGGC , thanks.
0.333

Param item = CGGCGGCA ; retrieve measured PBM E-score.
0.411

Which PBM E-score is reported for this sequence? CCTCCTTC
-0.213

Recorded PBM E-score for ACGCGGTA , please?
0.215

Look up PBM E-score for this sequence: ACAGCGTA
-0.0758

Consider the sequence shown here: AACGGAGA What is its recorded PBM E-score?
0.247

Query (sequence): AGGCGTCA ; field requested: PBM E-score
-0.0617

Give its PBM E-score value. Item: AACGGAGC
0.242

Requested field: PBM E-score. Item: GCCCAAAC
-0.0152

Can you look up the measured PBM E-score of CACGGACC for me?
0.241

Using the record for AGACAGGG , report its PBM E-score.
-0.161

If you can, please state the reported PBM E-score value of CCAAGGTA .
-0.11

Would you mind telling me what PBM E-score value was observed for ACGGTCAG ?
-0.0787

Dear colleague, I am looking for the recorded PBM E-score of the following sequence: AATCCCAT
-0.042

State the recorded PBM E-score for this entry: CGGGAGTA
0.417

Could you tell me which PBM E-score is on file for AAACCGCT ?
0.0494

What PBM E-score value was documented for this sequence, AGGGAATA ?
0.0674

Look up PBM E-score for this sequence: AGACCGCT
0.345

Recorded PBM E-score for AGTCCCGC , please?
0.358

Consider the sequence AACGGACA and give its measured PBM E-score.
0.298

Query: PBM E-score; subject: ACCGACCA
0.332
